# target-under-test: human FGFR4 (Homo sapiens, UniProt P22455)
# Sequence (P22455 22-802): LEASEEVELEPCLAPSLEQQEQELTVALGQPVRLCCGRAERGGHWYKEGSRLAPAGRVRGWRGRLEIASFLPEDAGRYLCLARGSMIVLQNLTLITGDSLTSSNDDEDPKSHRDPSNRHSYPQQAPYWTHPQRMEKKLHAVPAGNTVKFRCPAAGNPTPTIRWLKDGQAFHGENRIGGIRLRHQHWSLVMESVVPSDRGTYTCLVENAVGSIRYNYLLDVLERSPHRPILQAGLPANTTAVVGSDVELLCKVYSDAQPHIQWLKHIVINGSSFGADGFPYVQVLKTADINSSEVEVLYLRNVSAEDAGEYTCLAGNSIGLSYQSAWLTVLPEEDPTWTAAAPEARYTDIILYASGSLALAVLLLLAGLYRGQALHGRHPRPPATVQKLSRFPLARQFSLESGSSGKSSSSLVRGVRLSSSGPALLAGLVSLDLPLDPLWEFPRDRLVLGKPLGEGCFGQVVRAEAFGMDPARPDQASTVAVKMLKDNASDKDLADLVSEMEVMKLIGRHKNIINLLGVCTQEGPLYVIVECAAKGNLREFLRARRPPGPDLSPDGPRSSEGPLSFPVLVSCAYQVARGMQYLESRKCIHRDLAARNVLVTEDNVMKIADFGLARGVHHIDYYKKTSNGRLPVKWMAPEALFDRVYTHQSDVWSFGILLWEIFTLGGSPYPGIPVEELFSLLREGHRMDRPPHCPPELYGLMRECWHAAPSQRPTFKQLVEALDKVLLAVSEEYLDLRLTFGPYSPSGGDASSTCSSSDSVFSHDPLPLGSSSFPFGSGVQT
pIC50: −log10 of the molar value. Structures can show the parent of a compound that is named as a salt.
// not fulfilled strictly below 8 in pIC50; fulfilled otherwise

Input: Evaluate CCN1CC(n2cc(-c3cnc4[nH]cc(Cc5c(F)c(OC)cc(OC)c5F)c4c3)cn2)C1 [Trifluoroacetate salt of embodiment 25] : pIC50 at minimum 8?
Output: not fulfilled

Input: Evaluate COc1cc(OC)c(F)c(Cc2c[nH]c3ncc(-c4cnn(CCO)c4)cc23)c1F [Hydrochloride of embodiment 46] : pIC50 at minimum 8?
Output: fulfilled

Input: Evaluate CCN1CCC(C#N)(c2cccc(-c3cnc4[nH]cc(Cc5c(F)c(OC)cc(OC)c5F)c4c3)c2)CC1 [Trifluoroacetate salt of embodiment 60] : pIC50 at minimum 8?
Output: not fulfilled

Input: Evaluate COc1nc(OC)c(F)c(Cc2c[nH]c3ncc(-c4cnn(CCS(C)(=O)=O)c4)cc23)c1F [Trifluoroacetate salt of embodiment 77] : pIC50 at minimum 8?
Output: fulfilled

Input: Evaluate COc1cc(OC)c(F)c(Cc2c[nH]c3ncc(-c4ccc5c(c4)NC(=O)C54CCN(C)CC4)cc23)c1F [Trifluoroacetate salt of embodiment 56] : pIC50 at minimum 8?
Output: not fulfilled

Input: Evaluate CCN1CCC(n2cc(-c3cnc4[nH]nc(Cc5c(F)ccc(OC)c5F)c4c3)cn2)CC1 [Hydrochloride of embodiment 4] : pIC50 at minimum 8?
Output: not fulfilled
